Test system: Ps. aeruginosa DY-2
Experiment: MIC by agar dilution, Ps. aeruginosa DY-2
Format: cell-based
Conditions: Pseudomonas aeruginosa, DY2, 17 h; Ps. aeruginosa DY-2; agar dilution, Mueller-Hinton agar; read-out: Minimal Inhibitory Concentration (MIC)
property: MIC (µg/mL)
Just the number please, in µg/mL, no unit attached.

Look over these answered cases.
>  <molecule>
CON=C(C(=O)NC1C(=O)N2C(C(=O)[O-])=C(C[n+]3ccn4c(C=O)ccc4c3)CSC12)c1csc(N)n1 (stereo not drawn) [Ex. 25]

>  <MIC, µg/mL>
12.5

$$$$
>  <molecule>
CO/N=C(\C(=O)N[C@@H]1C(=O)N2C(C(=O)[O-])=C(C[n+]3ccn4c(C(C)=O)cc(Cl)c4c3)CS[C@H]12)c1csc(N)n1 [Ex. 34]

>  <MIC, µg/mL>
25

$$$$
>  <molecule>
CCc1c[n+](CC2=C(C(=O)[O-])N3C(=O)[C@@H](NC(=O)/C(=N\OC)c4csc(N)n4)[C@H]3SC2)cc2cccn12 [Ex. 37]

>  <MIC, µg/mL>
6.25

$$$$
>  <molecule>
CON=C(C(=O)NC1C(=O)N2C(C(=O)[O-])=C(C[n+]3ccn4cccc4c3)CSC12)c1csc(N)n1 (stereo not drawn) [Ex. 1-1]

>  <MIC, µg/mL>
1.56

$$$$
>  <molecule>
Nc1nc(C(=NOCF)C(=O)NC2C(=O)N3C(C(=O)[O-])=C(C[n+]4ccn5c(SCCO)ccc5c4)CSC23)cs1 (stereo not drawn) [Ex. 10]

>  <MIC, µg/mL>
3.13

$$$$
>  <molecule>
CO/N=C(\C(=O)N[C@@H]1C(=O)N2C(C(=O)[O-])=C(C[n+]3ccn4c(C(C)O)ccc4c3)CS[C@H]12)c1nsc(N)n1 (stereo partly drawn) [Ex. 51]

>  <MIC, µg/mL>
3.13

$$$$
>  <molecule>
C#CCON=C(C(=O)NC1C(=O)N2C(C(=O)[O-])=C(C[n+]3ccn4cccc4c3)CSC12)c1csc(N)n1 (stereo not drawn) [Ex. 4]

>  <MIC, µg/mL>
6.25

$$$$
>  <molecule>
CON=C(C(=O)NC1C(=O)N2C(C(=O)[O-])=C(C[n+]3ccn4c(SCCO)ccc4c3)CSC12)c1csc(N)n1 (stereo not drawn) [Ex. 8]

>  <MIC, µg/mL>
3.13

$$$$
>  <molecule>
CCON=C(C(=O)NC1C(=O)N2C(C(=O)[O-])=C(C[n+]3ccn4c(C(C)=O)ccc4c3)CSC12)c1csc(N)n1 (stereo not drawn) [Ex. 19]

>  <MIC, µg/mL>
6.25

$$$$
>  <molecule>
CO/N=C(\C(=O)N[C@@H]1C(=O)N2C(C(=O)O)=C(COC(C)=O)CS[C@H]12)c1csc(N)n1 [CTX, Cefotaxime, reference compound]

>  <MIC, µg/mL>
12.5

$$$$

Nc1nc(C(=NOCCF)C(=O)NC2C(=O)N3C(C(=O)[O-])=C(C[n+]4ccn5cccc5c4)CSC23)cs1 (stereo not drawn) [Ex. 5] tested on Ps. aeruginosa DY-2 gave MIC: 1.56

CCON=C(C(=O)NC1C(=O)N2C(C(=O)[O-])=C(C[n+]3ccn4c(SCCO)ccc4c3)CSC12)c1csc(N)n1 (stereo not drawn) [Ex. 9] tested on Ps. aeruginosa DY-2 gave MIC: 3.13

CO/N=C(\C(=O)N[C@@H]1C(=O)N2C(C(=O)[O-])=C(C[n+]3ccn4c(CO)ccc4c3)CS[C@H]12)c1nc(N)sc1Cl [Ex. 49] tested on Ps. aeruginosa DY-2 gave MIC: 3.13

CC(C)(ON=C(C(=O)NC1C(=O)N2C(C(=O)[O-])=C(C[n+]3ccn4cccc4c3)CSC12)c1csc(N)n1)C(=O)O (stereo not drawn) [Ex. 2] tested on Ps. aeruginosa DY-2 gave MIC: 6.25

CON=C(C(=O)NC1C(=O)N2C(C(=O)[O-])=C(C[n+]3ccn4c(CO)ccc4c3)CSC12)c1csc(N)n1 (stereo not drawn) [Ex. 21] tested on Ps. aeruginosa DY-2 gave MIC: 6.25

CON=C(C(=O)NC1C(=O)N2C(C(=O)[O-])=C(C[n+]3ccn4c(C(=O)O)ccc4c3)CSC12)c1csc(N)n1 (stereo not drawn) [Ex. 17] tested on Ps. aeruginosa DY-2 gave MIC: 3.13

CO/N=C(\C(=O)N[C@@H]1C(=O)N2C(C(=O)[O-])=C(C[n+]3cc(C(=O)O)n4cccc4c3)CS[C@H]12)c1csc(N)n1 [Ex. 39] tested on Ps. aeruginosa DY-2 gave MIC: 6.25

CO/N=C(\C(=O)N[C@@H]1C(=O)N2C(C(=O)[O-])=C(C[n+]3ccn4cccc4c3C)CS[C@H]12)c1csc(N)n1 [Ex. 40] tested on Ps. aeruginosa DY-2 gave MIC: 3.13

CO/N=C(\C(=O)N[C@@H]1C(=O)N2C(C(=O)[O-])=C(C[n+]3ccn4ccc(Cl)c4c3)CS[C@H]12)c1csc(N)n1 [Ex. 33] tested on Ps. aeruginosa DY-2 gave MIC: 1.56

Nc1nc(C(=NOCC(=O)O)C(=O)NC2C(=O)N3C(C(=O)[O-])=C(C[n+]4ccn5c(CO)ccc5c4)CSC23)cs1 (stereo not drawn) [Ex. 23] tested on Ps. aeruginosa DY-2 gave MIC: 3.13

CO/N=C(\C(=O)N[C@@H]1C(=O)N2C(C(=O)[O-])=C(C[n+]3ccn4c(Cl)ccc4c3C)CS[C@H]12)c1csc(N)n1 [Ex. 45] tested on Ps. aeruginosa DY-2 gave MIC: 6.25

CCON=C(C(=O)NC1C(=O)N2C(C(=O)[O-])=C(C[n+]3ccn4c(C=O)ccc4c3)CSC12)c1csc(N)n1 (stereo not drawn) [Ex. 26] tested on Ps. aeruginosa DY-2 gave MIC: 12.5

Nc1nc(/C(=N\O)C(=O)N[C@@H]2C(=O)N3C(C(=O)[O-])=C(C[n+]4ccn5cccc5c4)CS[C@H]23)cs1 [Ex. 7] tested on Ps. aeruginosa DY-2 gave MIC: 25

CCON=C(C(=O)NC1C(=O)N2C(C(=O)[O-])=C(C[n+]3ccn4cccc4c3)CSC12)c1csc(N)n1 (stereo not drawn) [Ex. 3] tested on Ps. aeruginosa DY-2 gave MIC: 0.78

CON=C(C(=O)NC1C(=O)N2C(C(=O)[O-])=C(C[n+]3ccn4c(SCCN)ccc4c3)CSC12)c1csc(N)n1 (stereo not drawn) [Ex. 27] tested on Ps. aeruginosa DY-2 gave MIC: 1.56

CON=C(C(=O)NC1C(=O)N2C(C(=O)[O-])=C(C[n+]3ccn4ccc(CO)c4c3)CSC12)c1csc(N)n1 (stereo not drawn) [Ex. 30] tested on Ps. aeruginosa DY-2 gave MIC: 3.13

NCCSc1ccc2c[n+](CC3=C(C(=O)[O-])N4C(=O)C(NC(=O)C(=NOCF)c5csc(N)n5)C4SC3)ccn12 (stereo not drawn) [Ex. 29] tested on Ps. aeruginosa DY-2 gave MIC: 6.25
